System: OVCAR3 cells
Experiment: Cell proliferation activity test (CyQUANT Direct)
Format: cell-based
Conditions: 3 days, 0.2% DMSO, CyQUANT fluorescence
endpoint.name: IC50 (nM)

compound	recorded.measurement
Cc1cc2nc(n1)N1CCC(F)(F)C(C=CCC3CCN(CC3)c3cc(NS(=O)(=O)CCO)c4c(c3C(=O)N2)CNC4=O)C1 (stereo not drawn)	89
CCS(=O)(=O)Nc1cc2c(c3c1C(=O)CC3)C(=O)Nc1cc(C)nc(n1)N1CCC(F)(F)C(C=CCC3CCN2CC3)C1 (stereo not drawn)	38
Cc1cc2nc(n1)C1CN(/C=C/CC3CCN(CC3)c3cc(NS(=O)(=O)CCO)ccc3-c3cn-2nn3)CCC1(F)F (single isomer, unassigned) [Example 84C]	38
